Test: log P by HPLC on a reversed-phase column (C 18), EEC Directive 79/831 Annex V.A8
Assay type: physicochemical
Conditions: HPLC, reversed-phase column (C 18), 40° C., 0.1% aqueous formic acid and acetonitrile, linear gradient 10% to 90% acetonitrile
QUANTITY NAME: logP

[a] Cn1nc(C(F)F)c(C(=O)N(Cc2ccc(F)cc2C2(C(F)F)CC2)C2CC2)c1Cl
[b] Cn1nc(C(F)F)c(C(=O)N(Cc2cc(-c3csc4ccccc34)ccc2C2(C)CC2)C2CC2)c1F
Prompt line: Just curious, which one has the larger logP reading, a or b ? Kindly state the label of the option you pick.
Response line: b

====

Assay: log P by HPLC on a reversed-phase column (C 18), EEC Directive 79/831 Annex V.A8
Assay type: physicochemical
Settings: reversed-phase HPLC column (C 18); Table 3 (amines of formula II); HPLC C 18, 40° C., 0.1% aqueous formic acid and acetonitrile
Method: In table 1, the log P values were determined in accordance with EEC Directive 79/831 Annex V.A8 by HPLC (High Performance Liquid Chromatography) on a reversed-phase column (C 18), using the method described below: Temperature: 40° C.; Mobile phases: 0.1% aqueous formic acid and acetonitrile; linear gradient from 10% acetonitrile to 90% acetonitrile. […]
QUANTITY NAME: chromatographic logP

Prompt line: Which chromatographic logP value belongs to CCC1(c2ccc(Cl)cc2CNC2CC2)CC1 ?
Response line: 1.66

Prompt line: Which chromatographic logP value belongs to CCC1(c2ccc(C(F)(F)F)cc2CNC2CC2)CC1 ?
Response line: 1.82

Prompt line: Which chromatographic logP value belongs to CCCC1(c2ccc(C)cc2CNC2CC2)CC1 ?
Response line: 1.81

Prompt line: Which chromatographic logP value belongs to CC1(c2c(F)cccc2CNC2CC2)CC1 ?
Response line: 1.36

Prompt line: Which chromatographic logP value belongs to CCC1(c2cc(C)ccc2CNC2CC2)CC1 ?
Response line: 1.47

Prompt line: Which chromatographic logP value belongs to CCC1(c2ccccc2CNC2CC2)CC1 ?
Response line: 1.52

====

Assay: log P by HPLC on a reversed-phase column (C 18), EEC Directive 79/831 Annex V.A8
Format: physicochemical
Details: HPLC, reversed-phase column (C 18), 40° C., 0.1% aqueous formic acid and acetonitrile, linear gradient 10% to 90% acetonitrile
QUANTITY NAME: logP

Prompt line: Which logP value belongs to CCC1(c2ccc(C)cc2CN(C(=O)c2c(C(F)F)nn(C)c2F)C2CC2)CC1 [I.113] ?
Response line: 4.61

Prompt line: Which logP value belongs to CCCC1(c2cc(Cl)ccc2CN(C(=O)c2c(C(F)F)nn(C)c2Cl)C2CC2)CC1 [I.129] ?
Response line: 5.31

Prompt line: Which logP value belongs to Cn1nc(C(F)F)c(C(=O)N(Cc2ccc(C3=CCOCC3)cc2C2(C)CC2)C2CC2)c1F [I.037] ?
Response line: 3.94

Prompt line: Which logP value belongs to CCC1(c2ccccc2CN(C(=O)c2c(C(F)F)nn(C)c2F)C2CC2)CC1 [I.096] ?
Response line: 4.21

Prompt line: Which logP value belongs to CCC1(c2cc(C)c(F)cc2CN(C(=O)c2c(C(F)F)nn(C)c2F)C2CC2)CC1 [I.106] ?
Response line: 4.67

Prompt line: Which logP value belongs to COc1ccc(CN(C(=S)c2c(C(F)F)nn(C)c2Cl)C2CC2)c(C2(C)CC2)c1 [I.031] ?
Response line: 4.51

Prompt line: Which logP value belongs to Cn1nc(C(F)F)c(C(=O)N(Cc2ccc(F)cc2C2(C)CC2)C2CC2)c1Cl [I.022] ?
Response line: 4.06

Prompt line: Which logP value belongs to Cn1nc(C(F)F)c(C(=O)N(Cc2cc(F)ccc2C2(C)CC2)C2CC2)c1Cl [I.067] ?
Response line: 4.04

Prompt line: Which logP value belongs to COC1(c2ccc(C)cc2CN(C(=O)c2c(C(F)F)nn(C)c2F)C2CC2)CC1 [I.122] ?
Response line: 3.57

Prompt line: Which logP value belongs to Cn1nc(C(F)F)c(C(=O)N(Cc2cc(Cl)ccc2C2(C#N)CC2)C2CC2)c1Cl [I.095] ?
Response line: 3.31

Prompt line: Which logP value belongs to Cc1ccc(C2(C)CC2)c(CN(C(=O)c2c(C(F)F)nn(C)c2F)C2CC2)c1 [I.071] ?
Response line: 4.19

Prompt line: Which logP value belongs to CCC1(c2ccc(Cl)cc2CN(C(=O)c2c(C(F)F)nn(C)c2Cl)C2CC2)CC1 [I.111] ?
Response line: 4.77

Prompt line: Which logP value belongs to Cn1nc(C(F)F)c(C(=O)N(Cc2cc(Br)ccc2C2(C(F)F)CC2)C2CC2)c1F [I.146] ?
Response line: 3.76

Prompt line: Which logP value belongs to Cn1nc(C(F)F)c(C(=S)N(Cc2cc(F)c(F)cc2C2(C)CC2)C2CC2)c1Cl [I.050] ?
Response line: 4.90

Prompt line: Which logP value belongs to Cn1nc(C(F)F)c(C(=O)N(Cc2cccc(F)c2C2(C)CC2)C2CC2)c1F [I.008] ?
Response line: 3.89

Prompt line: Which logP value belongs to Cc1ccccc1-c1ccc(CN(C(=O)c2c(C(F)F)nn(C)c2F)C2CC2)c(C2(C)CC2)c1 [I.035] ?
Response line: 5.26

Prompt line: Which logP value belongs to Cn1nc(C(F)F)c(C(=O)N(Cc2cccc(F)c2C2(C)CC2)C2CC2)c1Cl [I.009] ?
Response line: 3.99

Prompt line: Which logP value belongs to Cn1nc(C(F)F)c(C(=O)N(Cc2cc(C3CC3)ccc2C2(C)CC2)C2CC2)c1F [I.064] ?
Response line: 4.56
